B1: Zinc finger homeobox protein 4, residues 2562 to 2617; numbered along this chain, Q86UP3 (parent)
chain: RLRTTITPEQLEILYEKYLLDSNPTRKMLDHIAREVGLKKRVVQVWFQNTRARERK

# Variants of: B1
# METHOD: abundance fitness (aPCA) (normalised: wild type 0, dead -1); higher = more abundant; growth selection in yeast, the domain comes from the species named
# PROTOCOL_CONDITIONS: Homo sapiens
For each of the variants below, state its abundance fitness.
Give bare numbers.

For orientation, consider the following solved cases.
{"columns": ["MUTANT_LABEL", "MEASURED_PROPERTY", "MEAS_VALUE"],
 "data": [
  ["Y18W", "abundance fitness", -0.31],
  ["Y18Q", "abundance fitness", -0.839],
  ["L29E", "abundance fitness", 0.155],
  ["E35V", "abundance fitness", -0.306],
  ["P24R", "abundance fitness", -0.925]
]}

Hi there! I need abundance fitness for each item below, if you can.
1. D21G
2. R41H

1: -0.433; 2: 0.163

Count: 6. Required value per item: abundance fitness.
1. K27R
2. L19G
3. V36M
4. K39G
5. V36K
6. K39L

-0.475
-0.023
-0.134
0.117
-0.726
0.072

Quick one: give me abundance fitness for each item below, same order please.
1. H31C
2. S22F
3. M28S

1. 0.052
2. -0.168
3. -0.152

Quick batch: abundance fitness for everything below.
1. P24N
2. Y18M
3. D30Y
4. V36W
5. N23F
6. D30G
7. T25S
8. S22L

1. -0.754
2. -0.856
3. 0.003
4. -0.638
5. 0.301
6. -0.052
7. -0.056
8. -0.56
